Entries and their measured inhibition at 1 µM follow.
Molecular target: human μ opiate receptor (Homo sapiens)
Construct: purchased PerkinElmer Life Sciences, Zaventem, Belgium RB-HOM; host or cells: CHO-K1 cells (membrane preparation)
Sequence (P35372 whole entry): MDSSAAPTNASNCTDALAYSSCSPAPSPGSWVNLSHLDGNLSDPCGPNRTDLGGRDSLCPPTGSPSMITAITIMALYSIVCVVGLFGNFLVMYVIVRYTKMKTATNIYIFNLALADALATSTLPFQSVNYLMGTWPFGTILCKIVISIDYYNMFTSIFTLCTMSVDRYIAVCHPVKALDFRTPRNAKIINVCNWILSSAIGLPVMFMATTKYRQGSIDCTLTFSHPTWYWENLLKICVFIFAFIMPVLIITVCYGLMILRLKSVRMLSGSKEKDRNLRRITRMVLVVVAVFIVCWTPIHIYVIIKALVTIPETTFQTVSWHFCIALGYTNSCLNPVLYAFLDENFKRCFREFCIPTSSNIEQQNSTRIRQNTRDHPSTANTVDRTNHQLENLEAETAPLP
Assay: Affinity for the human μ opiate receptor ([3H]-naloxone displacement, CHO-K1 receptor membrane preparation, SPA)
Format: binding
Conditions: test concentration of 1 μM; read-out: μ (binding on the μ opioid receptor, % inhibition)
Reported metric: inhibition at 1 µM (%)

>>> observed_result("COc1ccc(S(=O)(=O)N(C)CCOCC(=O)NCC2CCC(C(c3cccs3)N(C)C)CC2)cc1 (stereo not shown)")
89
>>> observed_result("CN(C)C(c1ccccc1)C1CCC(CNC(=O)COCCN(C)S(=O)(=O)c2c(Cl)cc(Cl)cc2Cl)CC1 (stereo not shown)")
98
>>> observed_result("COc1cc(C)c(S(=O)(=O)N2CCC(OCC(=O)NCC3CCC(C(c4cccs4)N(C)C)CC3)C2)c(C)c1C (stereo not shown)")
95
>>> observed_result("CN(C)C(c1cccs1)C1CCC(NC(=O)COC2CCN(S(=O)(=O)c3cccc(C(F)(F)F)c3)C2)CC1 (stereo not shown)")
98

---

Biological target: bradykinin 1 receptor (B1R) of the rat (Rattus norvegicus, UniProt P97583)
Construct: expressed in transfected cells; host or cells: CHO K1 cells
Sequence (P97583 whole entry): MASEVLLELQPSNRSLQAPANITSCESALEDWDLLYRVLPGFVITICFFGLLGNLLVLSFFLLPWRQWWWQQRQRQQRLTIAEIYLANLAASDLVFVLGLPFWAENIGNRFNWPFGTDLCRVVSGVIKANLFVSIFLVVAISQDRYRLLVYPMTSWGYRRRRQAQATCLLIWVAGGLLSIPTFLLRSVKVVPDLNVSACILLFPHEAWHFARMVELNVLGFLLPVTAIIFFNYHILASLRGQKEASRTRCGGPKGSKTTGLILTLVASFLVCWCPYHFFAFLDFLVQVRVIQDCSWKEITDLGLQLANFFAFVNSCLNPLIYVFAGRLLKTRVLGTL
Assay: Functional investigation on the rat bradykinin 1 receptor (B1R), Ca2+ FLIPR assay in CHO K1 rB1R cells
Assay type: cell-based
Settings: B1R antagonism rat; test substance 10 μM; Ca2+ FLIPR, CHO K1 rB1R cells
Rule: B1R Ant. r [10 μM] % Inhibition below 40% gives 1.0, anything at or above gives 0.0.

>>> group("COc1cc(C)c(S(=O)(=O)N2CCCC(OCC(=O)NCCC3CCC(C(c4cccc(F)c4)N(C)C)CC3)C2)c(C)c1C (centres unmarked) [Example 221]")
1.0
>>> group("CN(C)C(c1ccccc1)C1CCC(CNC(=O)COCCC2CCN(S(=O)(=O)c3ccccc3)CC2)CC1 (centres unmarked) [Example 507]")
1.0
>>> group("COc1cc(C)c(S(=O)(=O)N2CCC(OCC(=O)NCCC3CCC(C(c4ccc(F)cc4)N(C)C)CC3)C2)c(C)c1C (centres unmarked) [Example 467]")
0.0
>>> group("COc1cc(C)c(S(=O)(=O)N(CCOCC(=O)NC2CCC(C(c3cccc(F)c3)N(C)C)CC2)Cc2ccccc2)c(C)c1C (centres unmarked) [Example 419]")
1.0
>>> group("CN(C)C(c1ccc(F)cc1)C1CCC(CCNC(=O)COCCN(C)S(=O)(=O)c2cccc(C(F)(F)F)c2)CC1 (centres unmarked) [Example 368]")
1.0
>>> group("COc1ccc(S(=O)(=O)N(C)CCOCC(=O)NCCC2CCC(C(c3ccc(Cl)cc3)N(C)C)CC2)cc1 (centres unmarked) [Example 460]")
0.0
>>> group("CN(C)C(c1ccc(F)cc1)C1CCC(CNC(=O)COC2CCN(S(=O)(=O)c3ccc(F)cc3)C2)CC1 (centres unmarked) [Example 522]")
1.0
>>> group("CN(C)C(c1ccc(F)cc1)C1CCC(NC(=O)COCC2CCCN2S(=O)(=O)c2ccc(Cl)c(Cl)c2)CC1 (centres unmarked) [Example 344]")
1.0
>>> group("CN(C)C(c1ccc(F)cc1)C1CCC(CNC(=O)COCC2CCCN2S(=O)(=O)c2ccc(Cl)c(Cl)c2)CC1 (centres unmarked) [Example 267]")
1.0
>>> group("COc1ccc(S(=O)(=O)N(C)CCOCC(=O)NCC2CCC(C(c3ccc(Cl)cc3)N(C)C)CC2)cc1OC (centres unmarked) [Example 379]")
0.0
>>> group("COc1cc(C)c(S(=O)(=O)N(C)CCOCC(=O)NCCC2CCC(C(c3ccc(F)cc3)N(C)C)CC2)c(C)c1C (centres unmarked) [Example 354]")
0.0
>>> group("Cc1ccc(S(=O)(=O)N(C)CCOCC(=O)NCC2CCC(C(CCc3ccccc3)N(C)C)CC2)cc1 (centres unmarked) [Example 452]")
1.0
>>> group("COc1cc(C)c(S(=O)(=O)N2CCC(OCC(=O)NC3CCC(C(c4ccc(F)cc4)N(C)C)CC3)C2)c(C)c1 (centres unmarked) [Example 441]")
0.0

Reference source: patent US8106055B2
